# target system: Bcr-Abl^T315I (Homo sapiens, UniProt P00519, T315I)
# assay text: Kinase activation assay (IC50), fluorescence polarization tyrosine kinase assay kit
# run parameters: T315I mutation kinase domain (Millipore), Poly (Glu, Tyr) 4:1 substrate, FP readout
measurement type: IC50

# compound, result
measured = [
    ("Cc1cn(-c2cc(C(=O)Nc3ccc(F)c(NC(=O)c4csc5c(NC6CC6)ncnc45)c3)cc(C(F)(F)F)c2)cn1 [Example 121]", "1 to 100 nM"),
    ("Cc1ccc(C(=O)Nc2cccc(C(F)(F)F)c2)cc1NC(=O)c1csc2c(N)ncnc12 [Example 8]", "1 to 100 nM"),
    ("Cc1ccc(NC(=O)c2ccc(C(F)(F)F)cc2)cc1NC(=O)c1csc2c(N)ncnc12 [Example 66]", "1000 to 10000 nM"),
    ("CCN1CCN(Cc2ccc(C(=O)Nc3ccc(C)c(/C=C/c4csc5c(N)ncnc45)c3)cc2C(F)(F)F)CC1 [Example 7]", "100 to 1000 nM"),
    ("COc1cc(C(=O)Nc2ccc(C)c(NC(=O)c3csc4c(N)ncnc34)c2)nc2ccccc12 [Example 56]", "1000 to 10000 nM"),
    ("Cc1ccc(NC(=O)c2cccc(C(F)(F)F)c2)cc1/C=C/c1csc2c(N)ncnc12 [Example 6]", "1000 to 10000 nM"),
    ("Cc1ccc(NC(=O)c2cc(N3CCC[C@H]3C)cc(C(F)(F)F)c2)cc1NC(=O)c1csc2c(NC3CC3)ncnc12 [Example 113]", "100 to 1000 nM"),
    ("CCN1CCN(Cc2ccc(C(=O)Nc3ccc(C)c(NC(=O)c4csc5c(N)ncnc45)c3)cc2C(F)(F)F)CC1 [Example 49]", "1 to 100 nM"),
    ("Cc1ccc(NC(=O)c2cc(-n3ccnc3C)cc(C(F)(F)F)c2)cc1NC(=O)c1csc2c(N)ncnc12 [Example 61]", "1 to 100 nM"),
    ("Cc1ccc(NC(=O)c2cc(C3CC3)on2)cc1NC(=O)c1csc2c(N)ncnc12 [Example 67]", "1000 to 10000 nM"),
    ("Cc1ccc(NC(=O)c2cccc(C(F)(F)F)c2)cc1NC(=O)c1csc2c(NC3CCCC3)ncnc12 [Example 71]", "1000 to 10000 nM"),
    ("Cc1ccc(NC(=O)c2cc(N3CCCN(C)CC3)cc(C(F)(F)F)c2)cc1NC(=O)c1csc2c(NC3CC3)ncnc12 [Example 93]", "1 to 100 nM"),
    ("Cc1ccc(NC(=O)c2cc(-n3ccnc3C)cc(C(F)(F)F)c2)cc1NC(=O)c1csc2c(NC3CC3)ncnc12 [Example 83]", "1 to 100 nM"),
    ("Cc1ccc(NC(=O)c2cc(NCCCN(C)C)cc(C(F)(F)F)c2)cc1NC(=O)c1csc2c(NC3CC3)ncnc12 [Example 41]", "1 to 100 nM"),
    ("Cc1ccc(NC(=O)c2ccc(CN3CCCN(C)CC3)c(C(F)(F)F)c2)cc1NC(=O)c1csc2c(NC3CC3)ncnc12 [Example 87]", "1 to 100 nM"),
]
